Biological target: recombinant PRL-2 (Homo sapiens, UniProt Q12974)
Construct: 6xHis (N, cleaved yes); made in house; host or cells: E. coli One Shot BL21 Star
Sequence (Q12974 whole entry): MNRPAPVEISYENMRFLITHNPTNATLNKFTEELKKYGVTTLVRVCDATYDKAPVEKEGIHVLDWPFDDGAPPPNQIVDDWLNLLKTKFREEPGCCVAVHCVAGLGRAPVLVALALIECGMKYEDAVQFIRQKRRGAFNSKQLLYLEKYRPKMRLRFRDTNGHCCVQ
Experiment: In vitro phosphatase assay (DiFMUP hydrolysis), PRL-2;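 further: PRL-2 activity read as DiFMUP hydrolysis after 20 min at room temperature with drug, enzyme first pre-reduced at 4 °C for 20 min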
Type: biochemical
Structures can show the parent of a compound that is named as a salt.
Consider the following molecules; for each one, report its % Phosphatase Activity (compared to DMSO) PRL-2.
Entry rule: numbers only, all in %.

QUERY: Lab note: need % Phosphatase Activity (compared to DMSO) PRL-2 with recombinant PRL-2 (Homo sapiens, UniProt Q12974) for entry Cl.Cl.O=C(O)COCCN1CCN(C(c2ccccc2)c2ccc(Cl)cc2)CC1 (stereo not shown) [Cetirizine DiHCl] , please look it up.
RESULT: 89

QUERY: Lab note: need % Phosphatase Activity (compared to DMSO) PRL-2 with recombinant PRL-2 (Homo sapiens, UniProt Q12974) for entry Cc1cccc([C@H](C)c2cnc[nH]2)c1C , please look it up.
RESULT: 113

QUERY: Lab note: need % Phosphatase Activity (compared to DMSO) PRL-2 with recombinant PRL-2 (Homo sapiens, UniProt Q12974) for entry Nc1nc(=O)n([C@@H]2CS[C@H](CO)O2)cc1F , please look it up.
RESULT: 97

QUERY: Lab note: need % Phosphatase Activity (compared to DMSO) PRL-2 with recombinant PRL-2 (Homo sapiens, UniProt Q12974) for entry O=N[O-].[Na+] [Sodium Nitrite] , please look it up.
RESULT: 116

QUERY: Lab note: need % Phosphatase Activity (compared to DMSO) PRL-2 with recombinant PRL-2 (Homo sapiens, UniProt Q12974) for entry C[C@]12CC[C@H]3[C@@H](CCC4=CC(=O)CC[C@@H]43)[C@@H]1CC[C@@H]2O , please look it up.
RESULT: 93

QUERY: Lab note: need % Phosphatase Activity (compared to DMSO) PRL-2 with recombinant PRL-2 (Homo sapiens, UniProt Q12974) for entry FC(F)(F)c1ccc(/C=C/c2nc(COc3ccc(CCCCn4ccnn4)cc3)co2)cc1 , please look it up.
RESULT: 114

QUERY: Lab note: need % Phosphatase Activity (compared to DMSO) PRL-2 with recombinant PRL-2 (Homo sapiens, UniProt Q12974) for entry Cc1cccc(C(C)c2cnc[nH]2)c1C (stereo not shown) [Medetomidine HCl] , please look it up.
RESULT: 113

QUERY: Lab note: need % Phosphatase Activity (compared to DMSO) PRL-2 with recombinant PRL-2 (Homo sapiens, UniProt Q12974) for entry Clc1cccc(Cl)c1N=C1NCCN1 [Clonidine HCl] , please look it up.
RESULT: 115

QUERY: Lab note: need % Phosphatase Activity (compared to DMSO) PRL-2 with recombinant PRL-2 (Homo sapiens, UniProt Q12974) for entry CC(C)OC(=O)[C@H](C)N[P@](=O)(CO[C@H](C)Cn1cnc2c(N)ncnc21)Oc1ccccc1 [Tenofovir Alafenamide (GS-7340)] , please look it up.
RESULT: 74

QUERY: Lab note: need % Phosphatase Activity (compared to DMSO) PRL-2 with recombinant PRL-2 (Homo sapiens, UniProt Q12974) for entry CCc1cnn2c(NCc3ccc[n+]([O-])c3)cc(N3CCCC[C@H]3CCO)nc12 [Dinaciclib (SCH727965)] , please look it up.
RESULT: 89

QUERY: Lab note: need % Phosphatase Activity (compared to DMSO) PRL-2 with recombinant PRL-2 (Homo sapiens, UniProt Q12974) for entry CS(=O)(=O)CCNCc1ccc(-c2ccc3ncnc(Nc4ccc(OCc5cccc(F)c5)c(Cl)c4)c3c2)o1.Cc1ccc(S(=O)(=O)O)cc1.Cc1ccc(S(=O)(=O)O)cc1 [Lapatinib (GW-572016) Ditosylate] , please look it up.
RESULT: 255

QUERY: Lab note: need % Phosphatase Activity (compared to DMSO) PRL-2 with recombinant PRL-2 (Homo sapiens, UniProt Q12974) for entry CC(C)NCC(O)COc1ccc(CCOCC2CC2)cc1 (stereo not shown) , please look it up.
RESULT: 124

QUERY: Lab note: need % Phosphatase Activity (compared to DMSO) PRL-2 with recombinant PRL-2 (Homo sapiens, UniProt Q12974) for entry CN(C)CCC=C1c2ccccc2C=Cc2ccccc21 [Cyclobenzaprine HCl] , please look it up.
RESULT: 103

QUERY: Lab note: need % Phosphatase Activity (compared to DMSO) PRL-2 with recombinant PRL-2 (Homo sapiens, UniProt Q12974) for entry Cc1cccc([C@H](C)c2c[nH]cn2)c1C.Cl [Dexmedetomidine HCl (Precedex)] , please look it up.
RESULT: 120

QUERY: Lab note: need % Phosphatase Activity (compared to DMSO) PRL-2 with recombinant PRL-2 (Homo sapiens, UniProt Q12974) for entry OC(CCN1CCCCC1)(c1ccccc1)C1CCCCC1 (stereo not shown) [Trihexyphenidyl hydrochloride] , please look it up.
RESULT: 98

QUERY: Lab note: need % Phosphatase Activity (compared to DMSO) PRL-2 with recombinant PRL-2 (Homo sapiens, UniProt Q12974) for entry C[N+](C)(C)CCO.[Cl-] [Choline Chloride] , please look it up.
RESULT: 106

QUERY: Lab note: need % Phosphatase Activity (compared to DMSO) PRL-2 with recombinant PRL-2 (Homo sapiens, UniProt Q12974) for entry Oc1ccc(O)cc1 [Hydroquinone] , please look it up.
RESULT: 91

QUERY: Lab note: need % Phosphatase Activity (compared to DMSO) PRL-2 with recombinant PRL-2 (Homo sapiens, UniProt Q12974) for entry CCCSc1ccc2nc(NC(=O)OC)[nH]c2c1 , please look it up.
RESULT: 88

QUERY: Lab note: need % Phosphatase Activity (compared to DMSO) PRL-2 with recombinant PRL-2 (Homo sapiens, UniProt Q12974) for entry OCCOc1ccc(/C(=C(/CCCl)c2ccccc2)c2ccccc2)cc1 , please look it up.
RESULT: 109

QUERY: Lab note: need % Phosphatase Activity (compared to DMSO) PRL-2 with recombinant PRL-2 (Homo sapiens, UniProt Q12974) for entry CCCCc1oc2ccccc2c1C(=O)c1cc(I)c(OCCN(CC)CC)c(I)c1 [Amiodarone HCl] , please look it up.
RESULT: 117

QUERY: Lab note: need % Phosphatase Activity (compared to DMSO) PRL-2 with recombinant PRL-2 (Homo sapiens, UniProt Q12974) for entry COc1cc(Cc2cnc(N)nc2N)cc(OC)c1OC , please look it up.
RESULT: 107

QUERY: Lab note: need % Phosphatase Activity (compared to DMSO) PRL-2 with recombinant PRL-2 (Homo sapiens, UniProt Q12974) for entry CCCc1cc(=O)[nH]c(=S)[nH]1 , please look it up.
RESULT: 93

QUERY: Lab note: need % Phosphatase Activity (compared to DMSO) PRL-2 with recombinant PRL-2 (Homo sapiens, UniProt Q12974) for entry CCOc1ccc(Cc2cc([C@@H]3O[C@H](CO)[C@@H](O)[C@H](O)[C@H]3O)ccc2Cl)cc1 , please look it up.
RESULT: 91

QUERY: Lab note: need % Phosphatase Activity (compared to DMSO) PRL-2 with recombinant PRL-2 (Homo sapiens, UniProt Q12974) for entry NC(CO)(CO)CO , please look it up.
RESULT: 105

QUERY: Lab note: need % Phosphatase Activity (compared to DMSO) PRL-2 with recombinant PRL-2 (Homo sapiens, UniProt Q12974) for entry Cl.Cl.NCCc1c[nH]cn1 [Histamine 2HCl] , please look it up.
RESULT: 118

QUERY: Lab note: need % Phosphatase Activity (compared to DMSO) PRL-2 with recombinant PRL-2 (Homo sapiens, UniProt Q12974) for entry Cc1cccc(C)c1N=C1NCCCS1 [Xylazine HCl] , please look it up.
RESULT: 112

QUERY: Lab note: need % Phosphatase Activity (compared to DMSO) PRL-2 with recombinant PRL-2 (Homo sapiens, UniProt Q12974) for entry CC[C@H](CO)Nc1nc(NCc2ccccc2)c2ncn(C(C)C)c2n1 [Roscovitine (Seliciclib,CYC202)] , please look it up.
RESULT: 111

QUERY: Lab note: need % Phosphatase Activity (compared to DMSO) PRL-2 with recombinant PRL-2 (Homo sapiens, UniProt Q12974) for entry OCCOCCN1CCN(C2=Nc3ccccc3Sc3ccccc32)CC1 [Quetiapine Fumarate] , please look it up.
RESULT: 87

QUERY: Lab note: need % Phosphatase Activity (compared to DMSO) PRL-2 with recombinant PRL-2 (Homo sapiens, UniProt Q12974) for entry NCCc1ccc(O)c(O)c1 [Dopamine HCl] , please look it up.
RESULT: 119

QUERY: Lab note: need % Phosphatase Activity (compared to DMSO) PRL-2 with recombinant PRL-2 (Homo sapiens, UniProt Q12974) for entry Cl.c1ccc(C2CN3CCSC3=N2)cc1 (stereo not shown) [Tetramisole HCl] , please look it up.
RESULT: 83

QUERY: Lab note: need % Phosphatase Activity (compared to DMSO) PRL-2 with recombinant PRL-2 (Homo sapiens, UniProt Q12974) for entry C[C@]12Cc3c[nH]nc3C[C@@H]1CC[C@@H]1[C@@H]2CC[C@@]2(C)[C@H]1CC[C@]2(C)O , please look it up.
RESULT: 84

QUERY: Lab note: need % Phosphatase Activity (compared to DMSO) PRL-2 with recombinant PRL-2 (Homo sapiens, UniProt Q12974) for entry NCCCC(O)(P(=O)(O)O)P(=O)(O)O [Alendronate] , please look it up.
RESULT: 93

QUERY: Lab note: need % Phosphatase Activity (compared to DMSO) PRL-2 with recombinant PRL-2 (Homo sapiens, UniProt Q12974) for entry NC(N)=Nc1nc(CSCCC(N)=NS(N)(=O)=O)cs1 , please look it up.
RESULT: 115

QUERY: Lab note: need % Phosphatase Activity (compared to DMSO) PRL-2 with recombinant PRL-2 (Homo sapiens, UniProt Q12974) for entry NC(=O)C(c1ccccc1)(c1ccccc1)[C@@H]1CCN(CCc2ccc3c(c2)CCO3)C1 , please look it up.
RESULT: 102
